assayProcedure: Toxicokinetic study of AAI after single oral administration (plasma, UPLC-QQQ-MS/MS, NCA)
Type: in vivo, F344 rats
settings: both sexes, F344, rat, plasma, po, 30 mg/kg, 30 mg/kg single oral, rat plasma, mean ± SD; read-out: tmax

{"mol": "COc1cccc2c1cc([N+](=O)[O-])c1c(C(=O)O)cc3c(c12)OCO3", "tmax [min]": 34.8}

----------
assayProcedure: Toxicokinetic study of AAI after single oral administration (plasma, UPLC-QQQ-MS/MS, NCA)
Assay type: in vivo, F344 rats
settings: both sexes, F344, rat, plasma, po, 100 mg/kg, 100 mg/kg single oral, rat plasma, mean ± SD; read-out: Cmax

{"mol": "COc1cccc2c1cc([N+](=O)[O-])c1c(C(=O)O)cc3c(c12)OCO3", "Cmax": "9110 ng/mL"}

----------
assayProcedure: Toxicokinetic study of AAI after single oral administration (plasma, UPLC-QQQ-MS/MS, NCA)
Assay type: in vivo, F344 rats
settings: F344, rat, plasma, po, 10 mg/kg, low-dose (10 mg/kg), individual pooled profiles (animal pairs), Table S4

{"compound": "COc1cccc2c1cc([N+](=O)[O-])c1c(C(=O)O)cc3c(c12)OCO3 [AAI, Aristolochic acid I]", "AUC(0-t) [ng·h/mL]": 843}

----------
assayProcedure: Toxicokinetic study of AAI after single oral administration (plasma, UPLC-QQQ-MS/MS, NCA)
Assay type: in vivo, F344 rats
settings: both sexes, F344, rat, plasma, po, 100 mg/kg, 100 mg/kg single oral, rat plasma, mean ± SD
measuredProperty: AUC(0-t) (ng·h/mL)

{"mol": "COc1cccc2c1cc([N+](=O)[O-])c1c(C(=O)O)cc3c(c12)OCO3", "measuredProperty": "AUC(0-t)", "quantitativeReadout": 17100}
